# Study System: MUL_3720 (Mycobacterium ulcerans, UniProt A0PU23)
# Construct: full length aa 1-207 in pET28a, recombinant, purified; 22 kDa; the MUL_ locus tags are those of strain Agy99
# Measurement Protocol: SPR (Biacore T200)
# Recorded Conditions: read-out: MUL_3720; protein amine-immobilised on CM5 chip, free glycan as analyte
Assay Endpoint: Kd

>  <Molecule>
CC(=O)N[C@H]1C(O)O[C@H](COS(=O)(=O)O)[C@H](O)[C@@H]1O[C@@H]1OC(C(=O)O)=C[C@H](O)[C@H]1O (some centres unmarked)

>  <Value>
0.0992 µM

$$$$

Now turn to the next molecule.
Which Kd value is on record for CC(=O)N[C@H]1C(O)O[C@H](CO)[C@@H](O[C@@H]2O[C@@H](C)[C@@H](O)[C@@H](O)[C@@H]2O)[C@@H]1O[C@@H]1O[C@H](CO)[C@H](O)[C@H](OS(=O)(=O)O)[C@H]1O[C@@H]1O[C@@H](C)[C@@H](O)[C@@H](O)[C@@H]1O (some centres unmarked) ?
17.4 µM

Data origin, for the record: paper PMC7906334
